Source: patent US9458092B2

- TEST_TARGET: TRPM8 (Rattus norvegicus)
- Sequence (Q8R455 whole entry): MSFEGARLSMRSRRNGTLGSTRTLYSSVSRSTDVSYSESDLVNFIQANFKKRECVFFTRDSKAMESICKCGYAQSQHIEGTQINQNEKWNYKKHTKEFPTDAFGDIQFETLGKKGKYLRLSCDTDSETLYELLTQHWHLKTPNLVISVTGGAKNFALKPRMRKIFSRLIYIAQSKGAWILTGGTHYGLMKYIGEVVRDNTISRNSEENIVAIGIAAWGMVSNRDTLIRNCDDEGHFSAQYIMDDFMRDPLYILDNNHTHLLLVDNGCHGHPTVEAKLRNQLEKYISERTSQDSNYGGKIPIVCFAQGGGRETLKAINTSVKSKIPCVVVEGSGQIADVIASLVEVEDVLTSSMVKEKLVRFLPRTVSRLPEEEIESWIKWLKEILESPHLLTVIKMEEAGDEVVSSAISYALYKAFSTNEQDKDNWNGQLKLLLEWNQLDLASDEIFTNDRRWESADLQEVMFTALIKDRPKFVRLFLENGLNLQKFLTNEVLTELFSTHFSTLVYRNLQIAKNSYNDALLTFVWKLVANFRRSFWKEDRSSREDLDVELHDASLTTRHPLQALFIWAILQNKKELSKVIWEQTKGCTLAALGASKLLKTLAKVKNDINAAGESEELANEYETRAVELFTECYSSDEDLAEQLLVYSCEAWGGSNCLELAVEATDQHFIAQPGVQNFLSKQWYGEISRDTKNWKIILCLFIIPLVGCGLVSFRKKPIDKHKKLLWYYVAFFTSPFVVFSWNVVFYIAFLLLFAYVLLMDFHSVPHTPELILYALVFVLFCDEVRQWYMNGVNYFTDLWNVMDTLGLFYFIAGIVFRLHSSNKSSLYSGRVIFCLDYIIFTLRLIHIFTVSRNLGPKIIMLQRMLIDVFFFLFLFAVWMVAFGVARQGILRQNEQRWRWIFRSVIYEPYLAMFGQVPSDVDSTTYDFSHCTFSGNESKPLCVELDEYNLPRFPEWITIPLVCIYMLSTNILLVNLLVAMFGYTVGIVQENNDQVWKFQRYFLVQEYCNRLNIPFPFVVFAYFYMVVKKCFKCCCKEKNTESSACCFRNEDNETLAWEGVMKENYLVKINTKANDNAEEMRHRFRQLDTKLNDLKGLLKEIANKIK
- EXPERIMENT_SUMMARY: Confirmation test of inhibitory effects on icilin-induced wet-dog shakes
- Type: in vivo, female SD rats
- Parameters: test compounds were orally administered to female SD rats; from tissue; host or cells: whole animal (female SD rats), endogenous channel
- MEASUREMENT_SETUP: dose 3 mg/kg orally, icilin 1 mg/kg i.p. after 1 hour, shakes counted for 5 minutes
ASSAY_METRIC: % inhibition of Wet-Dog Shake (%)

Guide cases for % inhibition of Wet-Dog Shake, answers given:
COMPOUND	TEST_TARGET	ASSAY_METRIC	READOUT_NUMBER
CSc1ncccc1C(=O)N([C@@H]1CCc2c(F)cc(Cl)cc21)[C@@H](C(N)=O)c1ccccc1 [Example 2-128LP]	TRPM8 (Rattus norvegicus)	% inhibition of Wet-Dog Shake	65
Cc1scnc1C(=O)N([C@@H]1CCc2c(F)cc(Cl)cc21)[C@@H](C(N)=O)c1ccccc1 [Example 2-147LP]	TRPM8 (Rattus norvegicus)	% inhibition of Wet-Dog Shake	91
Cc1ncsc1C(=O)N([C@@H]1CCc2c(F)cc(Cl)cc21)[C@@H](C(N)=O)c1ccccc1 [Example 15LP]	TRPM8 (Rattus norvegicus)	% inhibition of Wet-Dog Shake	100
NC(=O)[C@@H](c1cccnc1)N(C(=O)c1ccccc1O)[C@@H]1CCc2c(F)cc(Cl)cc21	TRPM8 (Rattus norvegicus)	% inhibition of Wet-Dog Shake	76
CNc1ncccc1C(=O)N([C@@H]1CCc2c(F)cc(Cl)cc21)[C@@H](C(N)=O)c1ccccc1 [Example 2-107LP]	TRPM8 (Rattus norvegicus)	% inhibition of Wet-Dog Shake	68

P = NC(=O)[C@@H](c1ccccc1)N(C(=O)c1cccc2c1OCC2)[C@@H]1CCc2c(F)cc(Cl)cc21 [Example 2-111LP]
Q = NC(=O)[C@@H](c1ccccc1)N(C(=O)c1cnccn1)[C@@H]1CCc2c(F)cc(Cl)cc21 [Example 2-179LP]
Hi team, can someone confirm which has the larger % inhibition of Wet-Dog Shake: P or Q ? Thanks. Reply with the label of the item you choose. P
